system under test: human adenosine A2a receptors (Homo sapiens, UniProt P29274)
Construct: expressed in transfected cells; host or cells: CHO-K1 cells with cAMP-inducible beta-galactosidase reporter gene
Sequence (P29274 whole entry): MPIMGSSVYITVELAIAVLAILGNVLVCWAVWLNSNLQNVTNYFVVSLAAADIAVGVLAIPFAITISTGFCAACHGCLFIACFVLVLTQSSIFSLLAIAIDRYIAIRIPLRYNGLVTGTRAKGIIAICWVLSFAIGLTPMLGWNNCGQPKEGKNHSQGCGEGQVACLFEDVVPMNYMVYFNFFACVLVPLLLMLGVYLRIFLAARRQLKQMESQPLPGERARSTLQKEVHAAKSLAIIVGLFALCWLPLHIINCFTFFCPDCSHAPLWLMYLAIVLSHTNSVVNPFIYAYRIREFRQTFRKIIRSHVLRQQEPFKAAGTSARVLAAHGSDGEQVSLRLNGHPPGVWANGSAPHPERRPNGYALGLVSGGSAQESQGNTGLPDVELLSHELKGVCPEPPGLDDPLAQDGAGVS
assay method text: Adenosine A2a receptor functional assay, antagonist mode (cAMP-inducible beta-galactosidase reporter, 50 nM NECA)
Assay type: cell-based
condition set: CHO-K1 cells, read-out: Ki (nM) A2a antagonist function
Class key for Ki values: category 1 = under 2 nM, category 2 = from 2 nM up to 20 nM, category 3 = 20 nM and over

// known answers, use as guide
compound	class
COc1cccc(-c2nc(N)c(C#N)c3c2C(=O)c2ccccc2-3)c1 [Compound 74]	category 2
Nc1nc(-c2ccco2)c2c(c1C(=O)O)-c1ccccc1C2=O [Compound 69]	category 3

Q) # bin lookup: classify CN(C)C=Nc1nc(-c2cccc(F)c2)c2c(n1)-c1ccccc1C2=O [Compound 19] by its Ki
A) category 3

Q) Band of N#Cc1c(N)nc(-c2ncc[nH]2)c2c1-c1ccccc1C2=O [Compound 75] ?
A) category 1

Q) For Nc1nc(-c2cccc(O)c2)c2c(n1)-c1ccccc1C2=O [Compound 13] , which Ki bin applies?
A) category 3

Q) Input CN1CCCC1COC(=O)c1c(N)nc(-c2ccco2)c2c1-c1ccccc1C2=O (stereo not drawn) [Compound 82] ; output its category
A) category 1

Q) Lab note: sort CSc1nc(N)nc2c1C(=O)c1c(N)cccc1-2 [Compound 18] into the matching Ki band.
A) category 3

Q) Band for the recorded Ki of COc1ccccc1-c1nc(N)nc2c1C(=O)c1ccccc1-2 [Compound 12] ?
A) category 3

* * *

log10 of Ki reference
system under test: Adenosine A1 receptor (Homo sapiens, UniProt P30542)
Sequence (P30542 1-326): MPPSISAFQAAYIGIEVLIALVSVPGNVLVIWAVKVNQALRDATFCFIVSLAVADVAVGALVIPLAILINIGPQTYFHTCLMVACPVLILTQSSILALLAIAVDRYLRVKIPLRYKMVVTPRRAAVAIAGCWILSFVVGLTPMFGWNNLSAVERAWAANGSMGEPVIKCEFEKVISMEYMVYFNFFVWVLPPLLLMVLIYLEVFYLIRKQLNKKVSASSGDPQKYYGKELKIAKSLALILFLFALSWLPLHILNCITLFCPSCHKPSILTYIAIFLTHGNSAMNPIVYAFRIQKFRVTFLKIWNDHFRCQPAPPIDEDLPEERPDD
assay method text: A1 antagonist function (no method described)
Type: cell-based
Values reflect log10 of reported Ki (nM).

Q) Specify measured log10 of Ki for Nc1nc(-c2ccco2)c2c(n1)-c1ccccc1C2 .
A) 1.19

Q) Return the recorded log10 of Ki value; entry: CN1CCN(CCCOC(=O)c2c(N)nc(-c3ccccc3)c3c2-c2ccccc2C3=O)CC1
A) 2.07

Q) Query log10 of Ki for CC(CN(C)C)OC(=O)c1c(N)nc(-c2ccco2)c2c1-c1ccccc1C2=O (stereo not drawn)
A) 1.72

Q) Provide one value: measured log10 of Ki of Nc1nc(-c2ccco2)c2c(n1)-c1ccc(C(F)(F)F)cc1C2=O
A) 0.44

Q) Return log10 of Ki for the following compound: Nc1nc(-c2cc(F)cc(F)c2)c2c(n1)-c1ccccc1C2=O
A) 0.63

Q) Please give the documented log10 of Ki of Nc1nc(-c2ccsc2)c2c(n1)-c1ccccc1C2=O
A) 0.54

Q) // fetch log10 of Ki given entry Nc1nc(-c2ccccc2)c2c(n1)-c1cccc(CN3CCCC(CO)C3)c1C2=O (stereo not drawn)
A) 1.59

Q) Give recorded log10 of Ki. CN1CCCC1COC(=O)c1c(N)nc(-c2ccco2)c2c1-c1ccccc1C2=O (stereo not drawn)
A) 1.47

Q) In one line, give reported log10 of Ki of the entry N#Cc1c(N)nc(-c2ccc(F)cc2)c2c1-c1ccccc1C2=O .
A) 0.38

Q) Given the compound CC(COC(=O)c1c(N)nc(-c2ccccc2)c2c1-c1ccccc1C2=O)CN(C)C (stereo not drawn) , write its reported log10 of Ki.
A) 1.52

Q) Respond only with log10 of Ki recorded for Nc1nc(-c2ccccc2)c2c(n1)-c1cccc(CN3CCOCC3)c1C2=O
A) 1.52

Q) Supply log10 of Ki value. Item: CN(C)CCOC(=O)c1c(N)nc(-c2ccccc2)c2c1-c1ccccc1C2=O
A) 1.53

Q) Identify measured log10 of Ki corresponding to CCOC(=O)C1CCCN(Cc2cccc3c2C(=O)c2c(-c4ccccc4)nc(N)nc2-3)C1 (stereo not drawn)
A) 1.30

Q) Read the entry Nc1nc(-c2ccc(Cl)cc2)c2c(n1)-c1ccccc1C2=O and write its reported log10 of Ki.
A) 1.06
